Test system: SK-MEL-28 melanoma
Measurement Notes: NCI tumour cell line growth inhibition, 48 h
Quick reference for TGI among some compounds

Examples from the recorded data:
* c1ccc2c(-c3nc4ccccc4[nH]3)cccc2c1 | > 100 µM
* CCOc1ccc(N=Nc2ccc3oc(=O)c(/C(C)=N\NC(=O)CC(=O)Nc4ccc(Cl)cc4)cc3c2)cc1 | > 100 µM
* CC(=O)O[C@H]1[C@@H](OC2CCCC2(c2ccccc2)c2ccccc2)O[N+]([O-])=C[C@@]12COCc1cc3c(cc12)OCO3 (some centres not stated) | > 28.4 µM
* Cn1c(=O)c2[nH]c(C3CC(=O)CC(c4nc5c([nH]4)c(=O)n(C)c(=O)n5C)N3)nc2n(C)c1=O (configuration not stated) | > 100 µM
* CC(C)=CC(O)C/C(C)=C/CC/C(C)=C/CCC1(C)C(CCCO)/C(=C(/C)C=O)CCC1(C)O (configuration not stated) | > 100 µM

Please examine the following record next.
Query: // lookup TGI for "CC(C)=CCc1ccc(O)c(=O)cc1C(C)C"
Result: > 100 µM

###

System: HT29 colon
Measurement Notes: NCI tumour cell line growth inhibition, 48 h
Form field: TGI (one value per entry).
Field: numeric (µM). Do not append units.

Study these solved cases before continuing.
- CCCC(=O)Nc1cc([N+](=O)[O-])c([N+](=O)[O-])cc1OC: 29.3
- Oc1ccc2c3c1OC1C(=NN=C4CCC5(O)C6Cc7ccc(O)c8c7C5(CCN6CC5CC5)C4O8)CCC4(O)C(C2)N(CC2CC2)CCC314 (configuration not stated): 32.8

Okay, next one:
Query: Query the reported TGI for HT29 colon; item: "O=C(N/N=c1/ccoc2cccnc12)N1CCN(c2ncccn2)CC1"
Result: 7.39

###

Quick reference: TGI of the listed items.
Test system: MALME-3M melanoma
Measurement Notes: NCI tumour cell line growth inhibition, 48 h

Below: 3 compounds and their reported TGI.
• COc1cc(OC)c2cc(C(=O)O)c(=O)oc2c1 = > 100 µM
• NC(CCCNc1cccc(O)c1)C(=O)O (stereo not drawn) = > 100 µM
• COc1ccc(CC2NCCc3cc(OC)c(OC)cc32)cc1 (stereo not drawn) = > 100 µM

Query: Which TGI is reported with MALME-3M melanoma for this entry: COP(=O)(OC)C(O)/C=C(\Cl)c1ccc(Cl)cc1 (stereo not drawn) ?
Result: > 100 µM

Query: Query the reported TGI for MALME-3M melanoma; item: "c1cc2cc(c1)CN1CCNCCN(CCNCC1)Cc1cccc(c1)CN1CCNCCN(CCNCC1)C2"
Result: > 100 µM

###

// values below are reported TGI
Test system: SF-539 CNS
Measurement Notes: NCI tumour cell line growth inhibition, 48 h

Look over these answered cases.
- COc1cccc(C2C(C(=O)O)=C(CO)Oc3cc4c(cc32)OCO4)c1 (configuration not stated): > 100 µM
- CN(C)CCCNC(=O)c1cc(NC(=O)c2cc(NC(=O)[C@H]3C[C@@H]3C(=O)Nc3cc(C(=O)Nc4cc(C(=O)NCCCN(C)C)n(C)c4)n(C)c3)cn2C)cn1C: > 100 µM
- CCOP(=O)(OCC)/C(C#N)=C/c1ccc[nH]1: > 100 µM
- N#Cc1c(NC(=O)c2cccc3ccccc23)sc2c1CCCC2: > 25 µM
- CC(C)[Si](OCC1CC(C[C@H]2CC(C[C@H]3C[C@@H](CO[Si](C(C)C)(C(C)C)C(C)C)OC(C)(C)O3)OC(C)(C)O2)OC(C)(C)O1)(C(C)C)C(C)C (some centres not stated): > 100 µM
- COc1cc(S(=O)(=O)Nc2ccc(-c3csc(N4C(=O)C(C)SC4c4ccccc4O)n3)cc2)ccc1Cl (configuration not stated): > 100 µM

Query: I would be grateful if you could share the reported TGI for "CCn1c(-c2ccccc2)nc2c1C(=O)c1ccccc1C2=O" .
Result: > 100 µM

Query: Please look up its TGI: COc1ccc(CC2NCCc3cc(OC)c(OC)cc32)cc1 (configuration not stated)
Result: > 100 µM

Query: State the recorded TGI for this entry: O=c1[nH]c(=O)n(C2CC(O)C(CO)O2)cc1C#Cc1cc(C(F)(F)F)cc(C(F)(F)F)c1 (configuration not stated)
Result: > 90.9 µM

Query: Fill blank: measured TGI of the compound "O=C(Nc1ccccc1)Nn1c(-c2cccs2)nc2ccc(I)cc2c1=O" is ____.
Result: > 100 µM

Query: What measured TGI goes with "O=c1c2ccccc2c2c1c1c3ccccc3c(=O)c1c1c3ccccc3c(=O)c21" ?
Result: > 100 µM

Query: Which measured TGI value corresponds to "Cc1[nH]n(-c2ccc(S(=O)(=O)O)cc2)c(=O)c1N=Nc1ccccc1" ?
Result: > 100 µM
